Consider the following molecules and their measured Papp at 100 µM readings.
- test: Group transport studies across PBMEC/C1-2 layers (Transwell)
- testParameters: pig, PEcell, PBMEC/C1-2 group study, without Meloxicam
Response body: numeric value in ×10⁻⁶ cm/s, unit text excluded.

mol	assayEndpoint	unitDescriptor	observedResult
Cc1ccc(-c2cc(C(F)(F)F)nn2-c2ccc(S(N)(=O)=O)cc2)cc1	Papp at 100 µM	×10⁻⁶ cm/s	25.8

Quick check: Papp at 100 µM of `CN1C(C(=O)Nc2ccccn2)=C(O)c2ccccc2S1(=O)=O` ? 64.2

* * *

- Test system: ECV304 cell layers
- test: in vitro
- testParameters: 100 µM
assayEndpoint: PSblank (µL/min)
Response body: numeric value in µL/min, unit text excluded.

compound	PSblank (µL/min)
CN1C(C(=O)Nc2ccccn2)=C(O)c2sccc2S1(=O)=O [Tenoxicam, tenoxicam]	7.12
CN1C(C(=O)Nc2ccccn2)=C(O)c2ccccc2S1(=O)=O [Piroxicam, piroxicam]	8.53
Cc1ccc(-c2cc(C(F)(F)F)nn2-c2ccc(S(N)(=O)=O)cc2)cc1 [Celecoxib, celecoxib]	5.10

Moving on to another compound below.
Quick check: PSblank of O=C(O)Cc1ccccc1Nc1c(Cl)cccc1Cl [Diclofenac, diclofenac] ? 4.08

* * *

- test: Single transport studies across PBMEC/C1-2 layers (Transwell)
- testParameters: pig
- Description: All solutions were prepared under sterile conditions. For quantification of NSAIDs a reverse-phase high-performance liquid chromatography (RP-HPLC) system from Shimadzu was used (DGV-20A5/prominence Degasser, SIL – 20AC/prominence Auto Sampler, CTO – 20AC/prominence Column Oven, SPD – 20A/prominence UV detector, CMB – 20A/prominence Communications Bus Module). […] Permeability coefficients were calculated following the clearance principle as described recently. […]
Consider the following compounds and their measured Papp at 100 µM readings.
Response body: numeric value in ×10⁻⁶ cm/s, unit text excluded.

Some solved cases for reference:
compound	unitDescriptor	Papp at 100 µM
CN1C(C(=O)Nc2ccccn2)=C(O)c2ccccc2S1(=O)=O [Piroxicam, piroxicam]	×10⁻⁶ cm/s	39.7
Cc1ccc(-c2cc(C(F)(F)F)nn2-c2ccc(S(N)(=O)=O)cc2)cc1 [Celecoxib, celecoxib]	×10⁻⁶ cm/s	22.4
CN1C(C(=O)Nc2ccccn2)=C(O)c2sccc2S1(=O)=O [Tenoxicam, tenoxicam]	×10⁻⁶ cm/s	36.7
CC(C)Cc1ccc(C(C)C(=O)O)cc1 (centres unmarked) [Ibuprofen, ibuprofen]	×10⁻⁶ cm/s	28.2

Moving on to another compound below.
Quick check: Papp at 100 µM of O=C(O)Cc1ccccc1Nc1c(Cl)cccc1Cl [Diclofenac, diclofenac] ? 17.7

* * *

- test: Single transport studies across ECV304 layers (Transwell)
- testParameters: human
Consider the following compounds and their measured Papp at 100 µM readings.
Response body: numeric value in ×10⁻⁶ cm/s, unit text excluded.

Some solved cases for reference:
mol	assayEndpoint	observedResult
CN1C(C(=O)Nc2ccccn2)=C(O)c2ccccc2S1(=O)=O	Papp at 100 µM	20.4
Cc1ccc(-c2cc(C(F)(F)F)nn2-c2ccc(S(N)(=O)=O)cc2)cc1	Papp at 100 µM	7.62
CN1C(C(=O)Nc2ccccn2)=C(O)c2sccc2S1(=O)=O	Papp at 100 µM	12.3

Quick check: Papp at 100 µM of `O=C(O)Cc1ccccc1Nc1c(Cl)cccc1Cl` ? 9.45

* * *

- test: in vitro
- testParameters: pig, PEcell
assayEndpoint: Papp at 100 µM (×10⁻⁶ cm/s)
Response body: numeric value in ×10⁻⁶ cm/s, unit text excluded.

Quick check: Papp at 100 µM of `CN1C(C(=O)Nc2ccccn2)=C(O)c2sccc2S1(=O)=O` ? 38.5

* * *

- test: Group transport studies across ECV304 layers (Transwell)
- testParameters: human, with verapamil (concentration not stated), PEcell, ECV304 group study, with Verapamil, without Meloxicam
assayEndpoint: Papp at 100 µM
The reply must contain the numeric value and, after it, the unit.

mol	assayEndpoint	observedResult
Cc1ccc(-c2cc(C(F)(F)F)nn2-c2ccc(S(N)(=O)=O)cc2)cc1	Papp at 100 µM	10.3 ×10⁻⁶ cm/s

Moving on to another molecule below.
Quick check: Papp at 100 µM of `CN1C(C(=O)Nc2ccccn2)=C(O)c2ccccc2S1(=O)=O` ? 26.6 ×10⁻⁶ cm/s

* * *

- System: PBMEC/C1-2 cell layers
- test: in vitro
- testParameters: 100 µM
Consider the following molecules and their measured PSblank readings.
Response body: numeric value in µL/min, unit text excluded.

Some solved cases for reference:
mol	target	unitDescriptor	observedResult
CN1C(C(=O)Nc2ccccn2)=C(O)c2ccccc2S1(=O)=O	PBMEC/C1-2 cell layers	µL/min	8.69
O=C(O)Cc1ccccc1Nc1c(Cl)cccc1Cl	PBMEC/C1-2 cell layers	µL/min	5.83
Cc1ccc(-c2cc(C(F)(F)F)nn2-c2ccc(S(N)(=O)=O)cc2)cc1	PBMEC/C1-2 cell layers	µL/min	6.07

Quick check: PSblank of `CN1C(C(=O)Nc2ccccn2)=C(O)c2sccc2S1(=O)=O` ? 7.47

* * *

- test: Group transport studies across PBMEC/C1-2 layers (Transwell)
- testParameters: pig, PEcell, PBMEC/C1-2 group study, without Celecoxib
assayEndpoint: Papp at 100 µM (×10⁻⁶ cm/s)
Response body: numeric value in ×10⁻⁶ cm/s, unit text excluded.

Quick check: Papp at 100 µM of `CN1C(C(=O)Nc2ccccn2)=C(O)c2ccccc2S1(=O)=O` ? 42.1

* * *

Consider the following compounds and their measured Papp at 100 µM readings.
- test: in vitro
- testParameters: rat
Response body: numeric value in ×10⁻⁶ cm/s, unit text excluded.

Some solved cases for reference:
compound	Papp at 100 µM (×10⁻⁶ cm/s)
CC(C)Cc1ccc(C(C)C(=O)O)cc1 (stereo not shown)	53.3
O=C(O)Cc1ccccc1Nc1c(Cl)cccc1Cl	44.6
CN1C(C(=O)Nc2ccccn2)=C(O)c2sccc2S1(=O)=O	21.9

Moving on to another compound below.
Quick check: Papp at 100 µM of `CN1C(C(=O)Nc2ccccn2)=C(O)c2ccccc2S1(=O)=O` ? 52.3

* * *

- test: Group transport studies across ECV304 layers (Transwell)
- testParameters: human, PEcell, ECV304 group study, all substances (6 NSAIDs, diazepam, CF), C6 medium
Consider the following compounds and their measured Papp at 100 µM readings.
Response body: numeric value in ×10⁻⁶ cm/s, unit text excluded.

mol	assayEndpoint	observedResult
Cc1ccc(-c2cc(C(F)(F)F)nn2-c2ccc(S(N)(=O)=O)cc2)cc1	Papp at 100 µM	11

Quick check: Papp at 100 µM of `CN1C(C(=O)Nc2ccccn2)=C(O)c2ccccc2S1(=O)=O` ? 21.4

* * *

- test: Group transport studies across PBMEC/C1-2 layers (Transwell)
- testParameters: pig, with probenecid (concentration not stated), PEcell, PBMEC/C1-2 group study, with Probenecid, without Meloxicam
assayEndpoint: Papp at 100 µM (×10⁻⁶ cm/s)
Response body: numeric value in ×10⁻⁶ cm/s, unit text excluded.

Quick check: Papp at 100 µM of `Cc1ccc(-c2cc(C(F)(F)F)nn2-c2ccc(S(N)(=O)=O)cc2)cc1` ? 27.8

* * *

- test: in vitro
- testParameters: human, PEcell
assayEndpoint: Papp at 100 µM (×10⁻⁶ cm/s)
Response body: numeric value in ×10⁻⁶ cm/s, unit text excluded.

Quick check: Papp at 100 µM of CC(C)Cc1ccc(C(C)C(=O)O)cc1 (stereo not shown) [Ibuprofen, ibuprofen] ? 16.3

* * *

- test: Group transport studies across ECV304 layers (Transwell)
- testParameters: human, PEcell, ECV304 group study, without Meloxicam
assayEndpoint: Papp at 100 µM (×10⁻⁶ cm/s)
Response body: numeric value in ×10⁻⁶ cm/s, unit text excluded.

mol	Papp at 100 µM (×10⁻⁶ cm/s)
Cc1ccc(-c2cc(C(F)(F)F)nn2-c2ccc(S(N)(=O)=O)cc2)cc1	23.3

Moving on to another molecule below.
Quick check: Papp at 100 µM of `CN1C(C(=O)Nc2ccccn2)=C(O)c2ccccc2S1(=O)=O` ? 45.9

* * *

Consider the following molecules and their measured Papp at 100 µM readings.
- test: Group transport studies across PBMEC/C1-2 layers (Transwell)
- testParameters: pig, PEcell, PBMEC/C1-2 group study, all substances (6 NSAIDs, diazepam, CF), C6 medium

mol	Papp at 100 µM
CN1C(C(=O)Nc2ccccn2)=C(O)c2ccccc2S1(=O)=O	70 ×10⁻⁶ cm/s

Moving on to another molecule below.
Quick check: Papp at 100 µM of `Cc1ccc(-c2cc(C(F)(F)F)nn2-c2ccc(S(N)(=O)=O)cc2)cc1` ? 22.1 ×10⁻⁶ cm/s

* * *

- System: ECV304 cell layers
- test: in vitro
- testParameters: human, 100 µM
Consider the following compounds and their measured PSall readings.
Response body: numeric value in µL/min, unit text excluded.

Some solved cases for reference:
mol	unitDescriptor	PSall
CN1C(C(=O)Nc2ccccn2)=C(O)c2sccc2S1(=O)=O	µL/min	2.16
O=C(O)Cc1ccccc1Nc1c(Cl)cccc1Cl	µL/min	1.50
Cc1ccc(-c2cc(C(F)(F)F)nn2-c2ccc(S(N)(=O)=O)cc2)cc1	µL/min	1.39

Moving on to another compound below.
Quick check: PSall of `CN1C(C(=O)Nc2ccccn2)=C(O)c2ccccc2S1(=O)=O` ? 3.21

Measured values drawn from paper PMC3900635 for this set.
